# System: Hs578T complex spheroid growth, percent test/control
# MEASUREMENT NOTES: Anticancer human tumor Hs578T cell line growth inhibition [AhR];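 also: luminescent viability signal as a proxy for spheroid growth; spheroids exposed to agents for one week after three days of growth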
# CONDITIONS USED: second compound 1 µM; first compound 3.16 µM; stronger effect = lower value
Entries whose viability, T/C is below 70% take 1; entries at or above 70% take -1.

# COMPOUND, GROUP
measured = [
    ("O=C(c1cc(Cc2n[nH]c(=O)c3ccccc23)ccc1F)N1CCN(C(=O)C2CC2)CC1 + Cc1cncc(-c2nc(NCCc3c[nH]c4ccccc34)c3ncn(C(C)C)c3n2)c1", -1),
    ("COc1ccc([C@@H](O)c2cc(-c3ncnc4cc(N5CCOCC5)ccc34)c(F)cc2Cl)nn1 + Cc1cncc(-c2nc(NCCc3c[nH]c4ccccc34)c3ncn(C(C)C)c3n2)c1", 1),
    ("COc1ccc([C@@H](O)c2cc(-c3ncnc4cc(N5CCOCC5)ccc34)c(F)cc2Cl)nn1 + Cc1ccccc1N=Nc1ccc(NC(=O)c2ccnn2C)c(C)c1", 1),
    ("COc1ccc([C@@H](O)c2cc(-c3ncnc4cc(N5CCOCC5)ccc34)c(F)cc2Cl)nn1 + CC(CO)NC(=O)c1cc(-c2ccc(Cl)cc2)nn(-c2cnn(C)c2)c1=O", 1),
    ("CC(C)c1c(-c2ccccc2)nc2c(C#N)c[nH]n2c1=O + Cc1ccccc1N=Nc1ccc(NC(=O)c2ccnn2C)c(C)c1", -1),
    ("CC1COCCN1c1cc(C2(S(C)(=N)=O)CC2)nc(-c2ccnc3[nH]ccc23)n1 (configuration not stated) + CC(CO)NC(=O)c1cc(-c2ccc(Cl)cc2)nn(-c2cnn(C)c2)c1=O", -1),
    ("O=C(C=Cc1cccc(S(=O)(=O)Nc2ccccc2)c1)NO + Cc1ccccc1N=Nc1ccc(NC(=O)c2ccnn2C)c(C)c1", 1),
    ("O=C(C=Cc1cccc(S(=O)(=O)Nc2ccccc2)c1)NO + CC(CO)NC(=O)c1cc(-c2ccc(Cl)cc2)nn(-c2cnn(C)c2)c1=O", 1),
    ("Nc1ccn(C2OC(CO)C(O)C2(F)F)c(=O)n1 (configuration not stated) + CC(CO)NC(=O)c1cc(-c2ccc(Cl)cc2)nn(-c2cnn(C)c2)c1=O", 1),
    ("Nc1ccccc1NC(=O)c1ccc(CNC(=O)OCc2cccnc2)cc1 + CC(CO)NC(=O)c1cc(-c2ccc(Cl)cc2)nn(-c2cnn(C)c2)c1=O", 1),
    ("COc1cc(C2c3cc4c(cc3C(OC3OC5COC(C)OC5C(O)C3O)C3COC(=O)C23)OCO4)cc(OC)c1O (configuration not stated) + Cc1cncc(-c2nc(NCCc3c[nH]c4ccccc34)c3ncn(C(C)C)c3n2)c1", -1),
    ("COc1cc(C2c3cc4c(cc3C(OC3OC5COC(C)OC5C(O)C3O)C3COC(=O)C23)OCO4)cc(OC)c1O (configuration not stated) + Cc1ccccc1N=Nc1ccc(NC(=O)c2ccnn2C)c(C)c1", 1),
]

====

# Test system: Hs578T complex spheroid growth, percent test/control
# MEASUREMENT NOTES: Anticancer human tumor Hs578T cell line growth inhibition [AhR];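 also: luminescent viability signal as a proxy for spheroid growth; spheroids exposed to agents for one week after three days of growth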
# CONDITIONS USED: second compound 0.316 µM; first compound 0.316 µM; stronger effect = lower value

# COMPOUND, viability, T/C (%)
data = [
    ("COc1cc(C2c3cc4c(cc3C(OC3OC5COC(C)OC5C(O)C3O)C3COC(=O)C23)OCO4)cc(OC)c1O (stereo not given) + Cc1ccccc1N=Nc1ccc(NC(=O)c2ccnn2C)c(C)c1", 88.9),
    ("O=C(C=Cc1cccc(S(=O)(=O)Nc2ccccc2)c1)NO + Cc1cncc(-c2nc(NCCc3c[nH]c4ccccc34)c3ncn(C(C)C)c3n2)c1", 93.8),
    ("COc1cccc2c1C(=O)c1c(O)c3c(c(O)c1C2=O)CC(O)(C(=O)CO)CC3OC1CC(N)C(O)C(C)O1 (stereo not given) + CC(CO)NC(=O)c1cc(-c2ccc(Cl)cc2)nn(-c2cnn(C)c2)c1=O", 66.8),
    ("CC(C)c1c(-c2ccccc2)nc2c(C#N)c[nH]n2c1=O + Cc1ccccc1N=Nc1ccc(NC(=O)c2ccnn2C)c(C)c1", 119),
    ("COc1ccc([C@@H](O)c2cc(-c3ncnc4cc(N5CCOCC5)ccc34)c(F)cc2Cl)nn1 + CC(CO)NC(=O)c1cc(-c2ccc(Cl)cc2)nn(-c2cnn(C)c2)c1=O", 104),
]
